Documented IC50 18 hr Pre-incubation, TNF induced apoptosis in MCF-7 cells across a set of binders
molecular target: human TNFα (Tumor Necrosis Factor-alpha), soluble (human, UniProt P01375 77-233); experiment: cell-based or functional assay
Sequence (P01375 77-233): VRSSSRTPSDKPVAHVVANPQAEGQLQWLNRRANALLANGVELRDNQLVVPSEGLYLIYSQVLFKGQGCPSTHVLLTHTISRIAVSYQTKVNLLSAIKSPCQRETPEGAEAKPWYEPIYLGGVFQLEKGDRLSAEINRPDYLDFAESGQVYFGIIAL
Your answer is read as nM, so omit the unit and give the number.

Examples with their reported IC50 18 hr Pre-incubation, TNF induced apoptosis in MCF-7 cells follow.
4.17 g1 (antibody, human IgG1, V domains shown) VH: QVQLVESGGGVVQPGRSLRLSCTTSGFTFSNYGMHWVRQAPGKGLEWVAVIWYDGSIKYYVDSVKGRFTISRDNSKNTLYLQMNSLRAEDTAVYYCAREKDCGGDCYSHYGMDVWGQGTTVTVSS VL: DIQMTQSPSSLSASVGDRVTITCRASQGIRNDLGWYQQKPGKAPKRLIYAASSLQSGVPSRFSGSGSGTEFTLTISSLQPEDFATYYCLQHMSLPLTFGGGTKVEIK	0.0404
263 (antibody, human IgG1, V domains shown, XENOMAX derived, recombinant human IgG1 kappa; also called SC263) VH: EVQLVESGGGLIQPGGSLRLSCAASGFTVSRNYMSWVRQAPGKGLEWVSVIYSGDRTYYADSVKGRFTISRDNSKNTLYLQMNSLRAEDTAVYYCARGEGGFDYWGQGTLVTVSS VL: EIVMTQSPATLSVSPGERATLSCRASQSVSSNLAWYQQKPGQAPRLLIHGASIRATGLPARFSGSGSGTEFTLTISSLQSEDFAVYYCQQYNYWWTFGQGTKVEIK	0.037

Now take the following binder into account.
### Prompt Entry 299v2 (antibody, human IgG1, V domains shown, XENOMAX derived, recombinant human IgG1 kappa; also called 299v2Ab; SC299V2) VH: QVQLVESGGGVVQPGRSLRLSCAASGFTFSSYDMHWVRQAPGKGLEWVAVIWSDGSIKYYADSVKGRFTISRDNSKNTLYLQMNSLRAEDTAVYYCAREVESAMGGFYYNGMDVWGQGTTVTVSS VL: DIQMTQSPSSLSASVGDRVTITCRASQGIRIDLGWYQQKPGKAPKRLIYAASTLQSGVPSRFSGSGSGTEFIFTISSLQPEDFASYYCLQHKSYPLTFGGGTKVEIK has what IC50 18 hr Pre-incubation, TNF induced apoptosis in MCF-7 cells?
### Response 0.0016
